Target: 5-hydroxytryptamine receptor 1A (Homo sapiens, UniProt P08908)
Sequence (P08908 whole entry): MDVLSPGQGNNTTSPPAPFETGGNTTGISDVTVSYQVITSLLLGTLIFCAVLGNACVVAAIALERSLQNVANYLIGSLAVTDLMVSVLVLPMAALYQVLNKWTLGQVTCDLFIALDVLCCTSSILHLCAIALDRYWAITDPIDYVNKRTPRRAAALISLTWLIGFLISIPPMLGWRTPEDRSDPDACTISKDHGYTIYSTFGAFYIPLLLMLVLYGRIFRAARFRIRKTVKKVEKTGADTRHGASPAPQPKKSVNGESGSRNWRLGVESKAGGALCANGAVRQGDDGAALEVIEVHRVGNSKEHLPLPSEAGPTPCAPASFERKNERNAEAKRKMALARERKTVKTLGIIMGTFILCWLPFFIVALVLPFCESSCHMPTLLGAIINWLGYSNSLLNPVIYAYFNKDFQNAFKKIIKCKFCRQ
Assay: Agonist activity at human 5-HT1A receptor expressed in HEK293 cells assessed as stimulation of GTPgammaS binding by scintillation proximity assay
PROPERTY_LABEL: EC50 (nM)

- SMILES_NOTATION: "Cc1ccc2c(N3CCN(CCc4cccc5c4ccc(=O)n5C)CC3)cccc2n1"
  RECORDED_MEASUREMENT: 0.0316

* * *

Target: 5-hydroxytryptamine receptor 1B (Homo sapiens, UniProt P28222)
Sequence (P28222 whole entry): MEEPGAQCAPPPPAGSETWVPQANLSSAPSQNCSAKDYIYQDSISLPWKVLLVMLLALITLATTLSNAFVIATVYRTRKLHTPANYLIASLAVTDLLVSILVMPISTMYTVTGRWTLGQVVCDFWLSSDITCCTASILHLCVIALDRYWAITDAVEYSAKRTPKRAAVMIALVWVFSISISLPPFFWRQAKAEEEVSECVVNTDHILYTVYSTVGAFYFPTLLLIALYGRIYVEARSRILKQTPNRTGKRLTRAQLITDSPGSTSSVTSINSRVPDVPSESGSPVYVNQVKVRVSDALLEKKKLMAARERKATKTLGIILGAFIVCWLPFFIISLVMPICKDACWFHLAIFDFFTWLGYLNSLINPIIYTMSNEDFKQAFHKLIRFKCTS
Test: Agonist activity at human 5-HT1B receptor expressed in CHO cells assessed as stimulation of GTPgammaS binding by scintillation proximity assay
pEC50: −log10 of the molar value.

- SMILES_NOTATION: "Cc1ccc2c(N3CCN(CCc4c(C)ccc5c4CCC(=O)N5C)CC3)cccc2n1"
  pEC50: 6.40
- SMILES_NOTATION: "Cc1ccc2c(N3CCN(CCc4c(Cl)ccc5c4ccc(=O)n5C)CC3)cccc2n1"
  pEC50: 6.50
- SMILES_NOTATION: "Cc1ccc2c(N3CCN(CCc4c(C)ccc5c4ccc(=O)n5C)CC3)cccc2n1"
  pEC50: 7.20
- SMILES_NOTATION: "Cc1ccc2c(N3CCN(CCc4c(C)ccc5[nH]c(=O)ccc45)CC3)cccc2n1"
  pEC50: 6.30
- SMILES_NOTATION: "Cc1ccc2c(N3CCN(CCc4c(C)ccc5c4CCC(=O)N5)CC3)cccc2n1"
  pEC50: 6.70

* * *

Target: UniProtKB P08908
Assay: Antagonist activity at human 5-HT1A receptor expressed in HEK293 cells assessed as inhibition of GTPgammaS binding by scintillation proximity assay
Reported values of Ki for individual entries
PROPERTY_LABEL: Ki

- SMILES_NOTATION: "Cc1ccc2c(N3CCN(CCc4c(C)ccc5c4ccc(=O)n5C)[C@@H](C)C3)cc(F)cc2n1"
  RECORDED_MEASUREMENT: "3.98 nM"
- SMILES_NOTATION: "Cc1ccc2c(N3CCN(CCc4c(C)ccc5c4CCC(=O)N5C)CC3)cccc2n1"
  RECORDED_MEASUREMENT: "0.631 nM"
- SMILES_NOTATION: "Cc1ccc2c(N3CCN(CCc4c(C)ccc5[nH]c(=O)ccc45)CC3)cccc2n1"
  RECORDED_MEASUREMENT: "1 nM"
- SMILES_NOTATION: "Cc1ccc2c(N3CCN(CCc4c(F)ccc5c4ccc(=O)n5C)CC3)cccc2n1"
  RECORDED_MEASUREMENT: "0.398 nM"
- SMILES_NOTATION: "Cc1ccc2c(N3CCN(CCc4cccc5c4ccc(=O)n5C)C(C)(C)C3)cccc2n1"
  RECORDED_MEASUREMENT: "1.58 nM"
- SMILES_NOTATION: "Cc1ccc2c(N3CCN(CCc4c(Cl)ccc5c4ccc(=O)n5C)CC3)cccc2n1"
  RECORDED_MEASUREMENT: "3.98 nM"
- SMILES_NOTATION: "Cc1ccc2c(N3CCN(CCc4cccc5c4ccc(=O)n5C)[C@H](C)C3)cc(F)cc2n1"
  RECORDED_MEASUREMENT: "1 nM"
- SMILES_NOTATION: "Cc1ccc2c(N3CCN(CCc4c(C)ccc5c4ccc(=O)n5C)CC3)cccc2n1"
  RECORDED_MEASUREMENT: "0.631 nM"
- SMILES_NOTATION: "Cc1ccc2c(N3CCN(CCc4c(C)ccc5c4ccc(=O)n5C)[C@@H](C)C3)cccc2n1"
  RECORDED_MEASUREMENT: "3.98 nM"
- SMILES_NOTATION: "Cc1ccc2c(N3CCN(CCc4c(C)ccc5c4ccc(=O)n5C)CC3)cc(F)cc2n1"
  RECORDED_MEASUREMENT: "1.26 nM"
- SMILES_NOTATION: "Cc1ccc2c(N3CCN(CCc4cccc5c4CCC(=O)N5C)CC3)cccc2n1"
  RECORDED_MEASUREMENT: "0.631 nM"
- SMILES_NOTATION: "Cc1ccc2c(N3CCN(CCc4c(C)ccc5c4ccc(=O)n5C)[C@H](C)C3)cccc2n1"
  RECORDED_MEASUREMENT: "1.26 nM"
- SMILES_NOTATION: "Cc1ccc2c(C3CCN(CCc4c(C)ccc5c4ccc(=O)n5C)CC3)cccc2n1"
  RECORDED_MEASUREMENT: "1.26 nM"
- SMILES_NOTATION: "Cc1ccc2c(N3CCN(CCc4c(C)ccc5c4CCC(=O)N5)CC3)cccc2n1"
  RECORDED_MEASUREMENT: "0.794 nM"
- SMILES_NOTATION: "Cc1ccc2c(N3CCN(CCc4cccc5c4ccc(=O)n5C)[C@@H](C)C3)cc(F)cc2n1"
  RECORDED_MEASUREMENT: "1 nM"
- SMILES_NOTATION: "Cc1ccc2c(N3CCN(CCc4cccc5c4ccc(=O)n5C)[C@@H](C)C3)cccc2n1"
  RECORDED_MEASUREMENT: "3.16 nM"
